# Test system: Staphylococcus aureus
# assay.procedure: In vitro antibacterial activity of A5177 strain of Gram positive bacteria Staphylococcus aureus
# Format: functional
experimental.readout: MIC (µg/mL)
Your answer is read as µg/mL, so omit the unit and give the number.

Recorded results for 3 molecules are shown here.
[[record]]
item_smiles = "CC[C@H]1OC(=O)/C(C)=C/[C@H](C)[C@@H](O[C@@H]2O[C@H](C)C[C@H](N(C)C)[C@H]2O)[C@@](C)(OC)C[C@@H](C)[C@H]2[C@H](C)[C@H]3N(C(=O)O[C@]13C)N2CCCc1ccccc1"
experimental_readout = "MIC"
unit_of_measure = "µg/mL"
recorded_number = 50

[[record]]
item_smiles = "CC[C@H]1OC(=O)/C(C)=C/[C@H](C)[C@@H](O[C@@H]2O[C@H](C)C[C@H](N(C)C)[C@H]2O)[C@@](C)(OC)C[C@@H](C)C(=O)[C@H](C)[C@H]2N(NC/C=C/c3cccc4ccccc34)C(=O)O[C@]12C"
experimental_readout = "MIC"
unit_of_measure = "µg/mL"
recorded_number = 0.39

[[record]]
item_smiles = "CC[C@H]1OC(=O)/C(C)=C/[C@H](C)[C@@H](O[C@@H]2O[C@H](C)C[C@H](N(C)C)[C@H]2O)[C@@](C)(OC)C[C@@H](C)C(=O)[C@H](C)[C@H]2N(NCc3ccc(N(C)C)cc3)C(=O)O[C@]12C"
experimental_readout = "MIC"
unit_of_measure = "µg/mL"
recorded_number = 0.2


# query: MIC of entry CC[C@H]1OC(=O)/C(C)=C/[C@H](C)[C@@H](O[C@@H]2O[C@H](C)C[C@H](N(C)C)[C@H]2O)[C@@](C)(OC)C[C@@H](C)C(=O)[C@H](C)[C@H]2N(NCCCc3cccc(O)c3)C(=O)O[C@]12C
0.1
